This collection of values is drawn from paper PMC6272176.

System: L. major promastigotes
Assay: Antileishmanial activity against L. major promastigotes, AlamarBlue assay
Assay type: cell-based, Leishmania major
Details: L. major promastigotes in vitro; verbal rating
Measurement label: antileishmanial activity (in words)

[[record]]
compound = "CC(C)=CCCC(C)C1(O)CC=C(C)CC1 (stereo not drawn) [β-Bisabolol (10), β-bisabolol]"
system_tested = "L. major promastigotes"
measurement_label = "antileishmanial activity (in words)"
reported_value = "moderate"

[[record]]
compound = "CC(C)C1CCC2(C)CCCC(=O)C2(C)C1 (centres unmarked) [Valeranone (12), valeranone]"
system_tested = "L. major promastigotes"
measurement_label = "antileishmanial activity (in words)"
reported_value = "moderate"

